Test system: Staphylococcus aureus
protocol description: Antibacterial activity against Staphylococcus aureus ATCC 25923 after 24 hr by broth microdilution method
Type: functional
study conditions: ATCC 25923, 24 h
quantity kind: MIC (µg/mL)

Use the examples below as a reference point.
• CCCC[C@H](CC(=O)NO)C(=O)N[C@H](c1nc(C(=O)Nc2ccc(F)cc2)co1)C(C)C = 100
• CCCC[C@H](CC(=O)NO)C(=O)N[C@H](c1nc(C(=O)Nc2ccc(C)cc2)co1)C(C)C = 50

[a] CCCC[C@H](CN(O)C=O)C(=O)N[C@H](c1nc(C(=O)N2CCCCC2)co1)C(C)C
[b] CCCC[C@H](CN(O)C=O)C(=O)N[C@H](c1nc(C(=O)N(CC)CC)co1)C(C)C
[c] CCCC[C@H](CC(=O)NO)C(=O)N[C@H](c1nc(C(=O)Nc2ccc(F)cn2)co1)C(C)C
Req: Hey, can you sort those molecules up there by MIC, smallest first? Lab note: record answer as labels in requested order.
Resp: b, a, c
(b: 25 µg/mL, a: 50 µg/mL, c: 100 µg/mL)

----------
Test system: Pseudomonas aeruginosa
protocol description: Antibacterial activity against Pseudomonas aeruginosa ATCC 27853 after 24 hr by broth microdilution method
Type: functional
study conditions: ATCC 27853, 24 h
quantity kind: MIC (µg/mL)

* CCCC[C@H](CN(O)C=O)C(=O)N[C@H](c1nc(C(=O)N2CCCCC2)co1)C(C)C | 100
* CCCC[C@H](CC(=O)NO)C(=O)N[C@H](c1nc(C(=O)Nc2ccc(C)cc2)co1)C(C)C | 100
* CCCC[C@H](CC(=O)NO)C(=O)N[C@H](c1nc(C(=O)Nc2ccc(F)cc2)co1)C(C)C | 100
* CCCC[C@H](CC(=O)NO)C(=O)N[C@H](c1nc(C(=O)Nc2ccc(F)cn2)co1)C(C)C | 100
* CCCC[C@H](CN(O)C=O)C(=O)N[C@H](c1nc(C(=O)N(CC)CC)co1)C(C)C | 100

----------
Here the recorded MIC is given for each entry.
Tested on: Pseudomonas aeruginosa
protocol description: Antibacterial activity against Pseudomonas aeruginosa ATCC 27853 after 24 hr by broth microdilution method
Assay type: functional
study conditions: ATCC 27853, 24 h

• CCCC[C@H](CN(O)C=O)C(=O)N[C@H](c1nc(C(=O)Nc2ccc3c(c2)OCO3)co1)C(C)C = > 200 µg/mL

Req: Which MIC value belongs to `CCCC[C@H](CN(O)C=O)C(=O)N[C@H](c1nc(C(=O)Nc2ccc(C)cc2)co1)C(C)C` ?
Resp: > 200 µg/mL

Req: Which MIC value belongs to `CCCC[C@H](CN(O)C=O)C(=O)N[C@H](c1nc(C(=O)Nc2ccc(F)cc2)co1)C(C)C` ?
Resp: > 200 µg/mL

Req: Which MIC value belongs to `CCCC[C@H](CN(O)C=O)C(=O)N[C@H](c1nc(C(=O)Nc2ccc(F)c(F)c2)co1)C(C)C` ?
Resp: > 200 µg/mL

Req: Which MIC value belongs to `CCCC[C@H](CN(O)C=O)C(=O)N[C@H](c1nc(C(=O)Nc2ccc(F)cn2)co1)C(C)C` ?
Resp: > 200 µg/mL
